- experiment: protease stability score; higher = more stable; yeast display proteolysis, trypsin and chymotrypsin;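 also: relative to predicted unfolded state with 0 unfolded-like and 1 meaning tenfold more protease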
measure: protease stability score
Form rule: numeric answer, no unit written next to it.

Illustrative cases are given below, each with its answer.
residue-sequence	value
REDEEWLERLLRIIEKAMRTGDEQLTKELFDPNVRLEVGDKIIIGWEELTKIMHEMRVRDSRIHRVRTVGDKVEADTTVNGEIDGREFETEVRIEMLKVDGQWVVDKVHFK	1.89
REEEENMRHFYKLMEHSLHTGDEDTLRRLFDPDARILIDGREHHGMEFILQLLHHIRLRVHDTKIEDIEHQGEWLHMHTRIDIYYNVDGQEVRVDTNVRLHAHKVDGRWFVRSYERG	0.748

Kindly review the next sequence as well.
Data request: protease stability score lookup needed for `HEDEHYMQRIAEDILKSFLTGDFDHIYRMADPHVKLIVGDKESIGRDDMETMLRIWLEILGADHLEVKDLKTRLVGDKIEVNVDNRIQIGDKLINVKIEIIFEKVNGRWKVSRITLKLR` , thanks.
Data returned: 1.5
